- procedure-text: Drug concentration in mouse CSF at 30 mg/kg, ip measured after 24 hrs
- Assay type: ADME, organism-based, Cerebrospinal fluid
- condition-context: read-out: Ct

[
  {
    "compound": "O=C1CO[C@H]2CCN(C(=O)N3CCC(Cc4ccc(C(F)(F)F)cc4)CC3)C[C@H]2N1",
    "concentration at 24 h, nM": 2
  }
]

* * *

- procedure-text: Plasma protein binding in mouse assessed as fraction unbound by equilibrium dialysis based LC-MS/MS method
- Format: ADME, cell-free

[
  {
    "compound": "O=C1CO[C@H]2CCN(C(=O)N3CCC(Cc4ccc(C(F)(F)F)cc4)CC3)C[C@H]2N1",
    "fraction unbound": 0.047
  }
]

* * *

- procedure-text: Average drug concentration in mouse plasma at 30 mg/kg, ip measured after 2 hrs
- Type: ADME, organism-based
- condition-context: read-out: Cave

[
  {
    "compound": "O=C1CO[C@H]2CCN(C(=O)N3CCC(Cc4ccc(C(F)(F)F)cc4)CC3)C[C@H]2N1",
    "concentration at 2 h (µM)": 42
  }
]

* * *

- procedure-text: Clearance in rat microsomes
- Assay type: ADME, Microsome

[
  {
    "compound": "O=C1CO[C@H]2CCN(C(=O)N3CCC(Cc4ccc(C(F)(F)F)cc4)CC3)C[C@H]2N1",
    "units-symbol": "µL/min/mg",
    "microsomal CLint": 11
  }
]

* * *

- procedure-text: Unbound brain to plasma partition coefficient of compound in Wistar rat at 10 mg/kg, ip measured upto 7 hrs by LC-MS/MS analysis
- Assay type: ADME, organism-based
- condition-context: read-out: K(p,uu,brain)
reported-metric: Kp uu at 7 h

[
  {
    "compound": "O=C1CO[C@H]2CCN(C(=O)N3CCC(Cc4ccc(C(F)(F)F)cc4)CC3)C[C@H]2N1",
    "value": 0.53
  }
]

* * *

- procedure-text: Octanol-water partition coefficient, logD of the compound at pH 7.4 incubated for 1.5 hrs by shake flask based LC-UV/MS analysis
- Type: physicochemical
- condition-context: pH 7.4

[
  {
    "molecule": "O=C1COc2ccc(C(=O)N3CCC(c4c[nH]c5ccc(Cl)cc45)CC3)cc2N1",
    "logD at 1.5 h": 3.6
  },
  {
    "molecule": "O=C1CO[C@H]2CCN(C(=O)N3CCC(Cc4ccc(C(F)(F)F)cc4)CC3)C[C@@H]2N1 (racemic)",
    "logD at 1.5 h": 3.2
  },
  {
    "molecule": "O=C1COc2ccc(C(=O)N3CCC(Cc4cccc(F)c4)CC3)cc2N1",
    "logD at 1.5 h": 3.6
  },
  {
    "molecule": "O=C1COc2ccc(C(=O)N3CCC(Cc4ccc(F)cc4)CC3)cc2N1",
    "logD at 1.5 h": 3.3
  },
  {
    "molecule": "O=C1COc2ccc(C(=O)N3CCC(Cc4ccc(C(F)(F)F)cc4)CC3)cc2N1",
    "logD at 1.5 h": 3.8
  },
  {
    "molecule": "O=C1COc2ccc(C(=O)N3CCC(c4c[nH]c5cc(Cl)ccc45)CC3)cc2N1",
    "logD at 1.5 h": 3.8
  },
  {
    "molecule": "O=C1COc2ccc(C(=O)N3CCC(Cc4cccc(C(F)(F)F)c4)CC3)cc2N1",
    "logD at 1.5 h": 3.9
  }
]
